Test: NFAT Signaling Pathway (AID 444);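 further: carbachol stimulus at about its EC50 of 1 µM final; on the % scale 0 is the no-effect control and ±100 the full control effect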
Conditions: Jurkat NFAT-bla M1, carbachol, beta-lactamase ratio, 5 h; at 7.69 µM (top of the series) unless noted
Records with an inconclusive call do not appear. The source made the active and inactive calls. The call rests on the fitted dose curve; in most records, active means well fitted curve in either direction with a large enough effect (not every such curve was filed as active); inconclusive means small, poorly fitted or top-dose-only effect, or another doubt; inactive means flat fitted curve, though single readings scatter.
Field 'call' accepts class 1 (active), class 0 (inactive)

Solved entries:
Smiles Notation	Class Assignment
COc1cccc(Cn2c(=O)c(-c3ccc(F)cc3)nc3cnc(N(C)C)nc32)c1	class 0
O=C(c1ccncc1)N1CCC2(CC1)CN(c1ccccc1)C2	class 0
COCC(=O)N1CCC2(CC1)CN(Cc1cc(C(F)(F)F)cc(C(F)(F)F)c1)C2	class 0
COCC(=O)N1CCC2(CCCN(C(=O)Nc3ccc(OC)cc3)C2)CC1	class 0
COCCn1c(=O)c(-c2ccc(F)cc2)nc2cnc(N3CCOCC3)nc21	class 0
N#Cc1ccccc1-c1ccc2ncnc(N3CCNCC3)c2c1	class 0

Incoming: Per the records of this test, what outcome belongs to c1nc(N2CCNCC2)c2cc(-c3ccc4c(c3)OCO4)ccc2n1 ?
Outgoing: class 0

Incoming: Per the records of this test, what outcome belongs to O=c1c(-c2cccs2)nc2cnc(N3CCOCC3)nc2n1Cc1ccc(F)cc1 ?
Outgoing: class 0

Incoming: Per the records of this test, what outcome belongs to CC(=O)NCCNc1ncnc2ccc(-c3ccoc3)cc12 ?
Outgoing: class 0

Incoming: Per the records of this test, what outcome belongs to COCCn1c(=O)cnc2cnc(Oc3ccccc3)nc21 ?
Outgoing: class 0

Incoming: Per the records of this test, what outcome belongs to COc1ncc2nc(-c3ccccc3)c(=O)n(C)c2n1 ?
Outgoing: class 0

Incoming: Per the records of this test, what outcome belongs to COCCn1c(=O)c(-c2ccc(Cl)cc2)nc2cnc(OCc3ccccc3)nc21 ?
Outgoing: class 0

* * *

Target: Glutathione peroxidase 1 (Homo sapiens) (UniProt P07203)
Sequence (P07203 whole entry, looked up): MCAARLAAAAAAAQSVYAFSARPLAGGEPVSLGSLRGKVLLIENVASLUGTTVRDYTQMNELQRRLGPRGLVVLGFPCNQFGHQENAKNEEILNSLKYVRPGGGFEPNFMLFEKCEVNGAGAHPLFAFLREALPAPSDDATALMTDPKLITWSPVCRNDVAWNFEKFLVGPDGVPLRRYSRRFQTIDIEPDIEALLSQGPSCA
Experiment: Primary qHTS Assay for Inhibitors of Recombinant Selenoprotein Glutathione Peroxidase 1 (GPX1) (AID 1845191); further: nearly all actives have a fitted effect of over 65% in size
Conditions: recombinant GPX1, GR-coupled NADPH fluorescence, 15 min; series mostly up to 48.8 µM
Records with an inconclusive call do not appear. Calls of active or inactive are those of the source. The call rests on the fitted dose curve; in most records, active means well fitted inhibition curve with a large enough effect; inconclusive means small, poorly fitted or top-dose-only effect; inactive means flat fitted curve, though single readings scatter. Where a SMILES comes first, the peptide text is derived from it. [ ]: non-standard residue; d: D form. The star is where a group is joined. Benzoyl(4-tBu) = CC(C)(C)c1ccc(C(=O)*)cc1; Lys(Et2) = CCN(CC)CCCC[C@H](N)C(=O)O
Field 'call' accepts 1 for active, -1 for inactive

Solved entries:
Compound	Assay System	Class Assignment
CCN(CC)CCCC[C@H](NC(=O)[C@H](CC(C)C)NC(=O)[C@H](C)NC(=O)[C@H](Cc1ccccc1)NC(=O)c1ccc(C(C)(C)C)cc1)C(=O)N[C@@H](CO)C(=O)OC ({Benzoyl(4-tBu)}-FAL[Lys(Et2)]S-OMe)	Glutathione peroxidase 1 (Homo sapiens) (UniProt P07203)	-1
CC(=O)N1c2ccc(-c3ccc(C(=O)O)cc3)cc2[C@H](Nc2ccc(Cl)cc2)C[C@@H]1C	Glutathione peroxidase 1 (Homo sapiens) (UniProt P07203)	-1
CCN(C(=O)c1ccccc1OC)c1cc2c(cc1N1CCNC[C@H]1C)n(C)c(=O)n2C	Glutathione peroxidase 1 (Homo sapiens) (UniProt P07203)	-1
CCC(=O)OCC(=O)C1(OC(=O)CC)C(C)CC2C3CCC4=CC(=O)C=CC4(C)C3(F)C(O)CC21C (stereo unspecified)	Glutathione peroxidase 1 (Homo sapiens) (UniProt P07203)	-1
COc1ccc(CNC(=O)c2cc(-c3cncc(Cl)c3)cnc2-c2ccccn2)nc1OC	Glutathione peroxidase 1 (Homo sapiens) (UniProt P07203)	-1
CC(=O)NCC(=O)N1[C@@H]2CC[C@H]1c1ccc(Nc3ncc(C(F)(F)F)c(NC4CCC4)n3)cc12	Glutathione peroxidase 1 (Homo sapiens) (UniProt P07203)	-1

Incoming: Per the records of this test, what outcome belongs to CC[C@H]1OC(=O)[C@H](C)C(=O)[C@H](C)[C@@H](O[C@H]2O[C@H](C)C[C@H](N(C)C)[C@H]2O)[C@](C)(OC)C[C@@H](C)C(=O)[C@H](C)[C@H]2N(CCCCn3cnc(-c4cccnc4)c3)C(=O)O[C@]12C ?
Outgoing: -1

Incoming: Per the records of this test, what outcome belongs to CC[C@@H](Oc1cccc(CN(CCCOc2ccc(OC)cc2)c2nc3ccccc3o2)c1)C(=O)O ?
Outgoing: -1

Incoming: Per the records of this test, what outcome belongs to C=C1CCC2[C@](C)(CO)C(O)CC[C@]2(C)C1C/C=C1/C(=O)OCC1O (stereo partly specified) ?
Outgoing: -1

* * *

Quick list: Z-AUC per entry.
Test: qHTS drug screen for cell cycle checkpoint inhibitors in PARPi-resistant BRCA-mutant ovarian cancer cell lines. (AID 1963452)
Conditions: PEO1/OlaR viability, CellTiter-Glo luminescence, 96 h; measured here: PEO1 parental Z-AUC; stronger effect = lower value

Compound	Z-AUC
CC(C)n1cc(-c2ccc3c(c2)N(C)CC3)c2c(NS(=O)(=O)c3ccn(C)n3)ccnc21	0.948
O=c1[nH]nc2c3c(cccc13)NC(CN1Cc3ccccc3C1)=N2	-0.113
Cc1c(NC(=O)c2cc(C(N)=O)nc3cc(F)ccc23)c(C(F)(F)F)nn1Cc1ccc(C(C)(C)C)cc1	-0.106
C=CCN(/C=C1\C(=O)O[C@@H](COC)[C@]2(C)C1=C(O)C(=O)C1=C2[C@@H](OC(C)=O)C[C@]2(C)C(=O)CC[C@H]12)CC=C	0.0227
CN(C)CCNC(=O)COc1c2cccc1Cc1cccc(c1OCC(=O)NCCN(C)C)Cc1cccc(c1OCC(=O)NCCN(C)C)Cc1cccc(c1OCC(=O)NCCN(C)C)C2	-0.716

Measured Z-AUC of O=C(/C=C\n1cnc(-c2cc(C(F)(F)F)cc(C(F)(F)F)c2)n1)NNc1ccccn1 : -1.43

Measured Z-AUC of Cc1ccc(NS(=O)(=O)c2ccc3c(c2)C2C=CCC2C(c2ccc(C(=O)O)cc2)N3)cc1C (stereo not drawn) : -0.264

Measured Z-AUC of CC(=O)NCC(=O)N1[C@@H]2CC[C@H]1c1ccc(Nc3ncc(C(F)(F)F)c(NC4CCC4)n3)cc12 : -0.113

Measured Z-AUC of C[C@@H]1Cc2c([nH]c3ccccc23)[C@@H](c2c(F)cc(/C=C/C(=O)O)cc2F)N1CC(C)(C)F : -0.682

Measured Z-AUC of O=c1ncccn1[C@@H]1O[C@H](CO)[C@@H](O)[C@H]1O : -0.911

* * *

Test: qHTS for inhibitors of ER calcium dysfunction: SERCaMP assay screened against the NCATS CANVASS Library (AID 1347393);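 further: on the % scale 0 is the no-effect control and ±100 the full control effect; lower secreted reporter signal means inhibitor of ER calcium depletion; nearly all actives have a fitted effect of over 40% in size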
Conditions: SH-SY5Y GLuc-SERCaMP (Gaussia luciferase released on ER calcium loss) secretion, thapsigargin, luminescence; series mostly up to 76.6 µM
Results filed as inconclusive are left out. Active and inactive are the calls of the source. Calls follow the shape of the dose curve; as a rule, active = well fitted inhibition curve with a large enough effect; inconclusive = small, poorly fitted or top-dose-only effect; inactive = no such curve, though single readings can be large or run the other way.

Smiles Notation	outcome
CCC(=O)N[C@@H](C[C@H](C)C(Cl)(Cl)Cl)C(=O)N1C(=O)C=C(OC)[C@@H]1CC(C)C	inactive
CC(C)[C@@H]1CC(=O)c2coc3c2[C@H]1C[C@@H](C)C3=O	inactive
COc1c(O)cc(O)c2c(=O)cc(-c3ccccc3)oc12	inactive

* * *

Assay: qHTS assay to identify inhibitors of the type 1 interferon - major histocompatibility complex class I in skeletal muscle: Counter screen cell viability and HiBit confirmation (AID 1347412); further: on the % scale 0 is the no-effect control and ±100 the full control effect; nearly all actives have a fitted effect of over 60% in size
Settings: iHSKM muscle cells + IFN-b, HiBiT or CellTiter-Glo, 24 h; Viability; at 45.9 µM (top of the series)
Results filed as inconclusive are left out. Active and inactive are the calls of the source. Calls follow the shape of the dose curve; as a rule, active = well fitted inhibition curve with a large enough effect; inconclusive = small, poorly fitted or top-dose-only effect; inactive = no such curve, though single readings can be large or run the other way.
Property Label: activity change, negative = inhibition

Measured activity change, negative = inhibition of CC(=O)c1ccc2c(c1)c1cc(C(C)=O)ccc1n2CCNC(C)C : -5.98% (inactive)

Measured activity change, negative = inhibition of CC(=O)NCC(=O)N1[C@@H]2CC[C@H]1c1ccc(Nc3ncc(C(F)(F)F)c(NC4CCC4)n3)cc12 : -29.6% (inactive)

Measured activity change, negative = inhibition of Cc1ccc(NC(=O)c2ccc3c(c2)OCCO3)cc1NC(=O)c1ccc2nc(OCCN3CCCC3)ccc2c1 : -19.9% (inactive)

Measured activity change, negative = inhibition of Fc1cccc(-n2cnc3c(NCc4nc5c(F)c(F)ccc5[nH]4)nc(N4CCOCC4)nc32)c1 : -14.7% (inactive)

Measured activity change, negative = inhibition of CN1CCN(c2ccc(Nc3ncc4cc(C#N)c(=O)n(C5CCCC5)c4n3)cc2)CC1 : -23.1% (inactive)

* * *

Assay: A2780 Cisplatin Sensitive Ovarian Cancer Cell Toxicity qHTS against the NCATS CANVASS Library (AID 1347353); further: nearly all actives have a fitted effect of over 60% in size
Settings: A2780 ovarian cancer viability, ATPLite luminescence, 72 h; series mostly up to 46.1 µM
Inconclusive results are not listed. Activity calls are given as the source filed them. The call rests on the fitted dose curve; in most records, active means well fitted cell-killing curve with a large enough effect; inconclusive means small, poorly fitted or top-dose-only effect; inactive means flat fitted curve, though single readings scatter.
Field 'call' accepts True for active, False for inactive

Molecule	Class Assignment
CC(C)C[C@@H]1c2c(O)c(C=O)c(O)c(C=O)c2O[C@]2(C)C=C[C@@H](C(C)C)C[C@H]12	False
C/C(=C\[C@H](C)C(=O)/C=C/CC1CC(=O)NC(=O)C1)[C@@H]1OC(=O)/C=C/CC/C=C/C[C@@H](O)[C@@H]1C	True

Incoming: Per the records of this test, what outcome belongs to COc1cc2ccc(=O)oc2c(O)c1O[C@@H]1O[C@H](CO)[C@@H](O)[C@H](O)[C@H]1O ?
Outgoing: False

Incoming: Per the records of this test, what outcome belongs to O[C@H]1c2ccccc2-c2c3c(cc4c2[C@@H]1NCC4)OCO3 ?
Outgoing: True

Incoming: Per the records of this test, what outcome belongs to C[C@@]12CCC[C@@](C)(C(=O)O)[C@H]1CC[C@@]13C[C@@H](CC[C@H]12)[C@](C)(O)C3 ?
Outgoing: False

Incoming: Per the records of this test, what outcome belongs to CC(C)=CCC[C@]1(C)[C@H]2CC(=O)[C@@]3(CO3)[C@@H]1C2 ?
Outgoing: False

Incoming: Per the records of this test, what outcome belongs to C[C@@]12C[C@@H](C[C@@H]3C(=O)O[C@@H](c4ccoc4)[C@H](OC(=O)c4ccccc4)[C@@H]31)OC2=O ?
Outgoing: False

Data origin: PubChem BioAssay (NCATS)
